assay-system: S-methyl-5'-thioadenosine phosphorylase (Homo sapiens, UniProt Q13126)
Sequence (Q13126 whole entry): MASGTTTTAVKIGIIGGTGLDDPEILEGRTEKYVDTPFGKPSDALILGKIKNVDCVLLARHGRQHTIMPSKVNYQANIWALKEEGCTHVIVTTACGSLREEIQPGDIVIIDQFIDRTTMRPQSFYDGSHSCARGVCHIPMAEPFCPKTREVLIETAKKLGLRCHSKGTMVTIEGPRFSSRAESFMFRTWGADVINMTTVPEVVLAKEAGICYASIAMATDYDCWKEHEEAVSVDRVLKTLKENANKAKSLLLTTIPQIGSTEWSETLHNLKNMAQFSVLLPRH
assay-name: Inhibition of human MTAP as initial dissociation constant
recorded-endpoint: Ki (nM)

P = Nc1ncnc2c(CN3CC(O)C(CSCc4ccccc4)C3)n[nH]c12 (centres undefined)
Q = NC1N=CNc2c(CN3CC(O)C(CSc4ccc(Cl)cc4)C3)c[nH]c21 (centres undefined)
Exercise: Returns: the label, P or Q , whose recorded Ki is the lower number. Select an item and report its label.
Key: Q
(Q: 0.36 nM, P: 55 nM)

1 = CSCC1CN(Cc2c[nH]c3c(N)ncnc23)CC1O (centres undefined)
2 = CCSCC1CN(Cc2c[nH]c3c2N=CNC3N)CC1O (centres undefined)
Exercise: Returns: the label, 1 or 2 , whose recorded Ki is the lower number. Select an item and report its label.
Key: 2
(2: 0.65 nM, 1: 1.7 nM)
